Test system: MALME-3M
Assay: Melanoma cytotoxicity assay (resazurin)
Format: cell-based
Settings: human, 24 h
Method: On day 1, the cell line trypsinized and centrifuged to form cell pellet. The pellet was diluted in media, then counted using Countess automated cell counter. Approximately 4000 cells (198 uL) per well plated in 63 of 64 inner wells. […] On day 3, 40 μL of 0.15 mg/ml reszurin solution added to wells. […] Excitation and emission for fluorescence measured at 544 nm and 590 nm using BMG Labtech Fluostar Optima plate reader […] IC50s were determined by using cereal dilution of compound to determine viability. […]
// NB: equality with 60% counts as 0 (no); only MALME-3M (% viability) strictly below is 1 (yes)

[[record]]
compound = "C[C@]12CC[C@H]3[C@@H](CC=C4c5sc(Nc6ccccc6)nc5CC[C@@]43C)[C@@H]1CC[C@@H]2O"
answer_label = "0 (no)"

[[record]]
compound = "CC(=O)Nc1nc2c(s1)C1=CC[C@H]3[C@@H]4CC[C@H](O)[C@@]4(C)CC[C@@H]3[C@@]1(C)CC2"
answer_label = "0 (no)"

[[record]]
compound = "C[C@]12CC[C@H]3[C@@H](CC=C4c5sc(Nc6ccccc6[N+](=O)[O-])nc5CC[C@@]43C)[C@@H]1CC[C@@H]2O"
answer_label = "0 (no)"

[[record]]
compound = "C[C@]12CC[C@H]3[C@@H](CC=C4c5sc(Nc6ccc(F)cc6F)nc5CC[C@@]43C)[C@@H]1CC[C@@H]2O"
answer_label = "1 (yes)"

[[record]]
compound = "C[C@]12CC[C@H]3[C@@H](CC=C4c5sc(Nc6cccc(C(=O)O)c6)nc5CC[C@@]43C)[C@@H]1CC[C@@H]2O"
answer_label = "0 (no)"

[[record]]
compound = "C[C@]12CC[C@H]3[C@@H](CC=C4c5sc(Nc6ccc(C(=O)O)cc6)nc5CC[C@@]43C)[C@@H]1CC[C@@H]2O"
answer_label = "0 (no)"

[[record]]
compound = "CCNc1nc2c(s1)C1=CC[C@H]3[C@@H]4CC[C@H](O)[C@@]4(C)CC[C@@H]3[C@@]1(C)CC2"
answer_label = "1 (yes)"

[[record]]
compound = "Cc1ccc(Nc2nc3c(s2)C2=CC[C@H]4[C@@H]5CC[C@H](O)[C@@]5(C)CC[C@@H]4[C@@]2(C)CC3)cc1"
answer_label = "1 (yes)"

[[record]]
compound = "C[C@]12CC[C@H]3[C@@H](CC=C4c5sc(NCCc6ccccc6)nc5CC[C@@]43C)[C@@H]1CC[C@@H]2O"
answer_label = "1 (yes)"

[[record]]
compound = "C[C@]12CC[C@H]3[C@@H](CC=C4c5sc(Nc6ccc(F)cc6)nc5CC[C@@]43C)[C@@H]1CC[C@@H]2O"
answer_label = "1 (yes)"

[[record]]
compound = "C[C@]12CC[C@H]3[C@@H](CC=C4c5sc(Nc6ccccn6)nc5CC[C@@]43C)[C@@H]1CC[C@@H]2O"
answer_label = "1 (yes)"

[[record]]
compound = "CCCCNc1nc2c(s1)C1=CC[C@H]3[C@@H]4CC[C@H](O)[C@@]4(C)CC[C@@H]3[C@@]1(C)CC2"
answer_label = "1 (yes)"

[[record]]
compound = "C=CCNc1nc2c(s1)C1=CC[C@H]3[C@@H]4CC[C@H](O)[C@@]4(C)CC[C@@H]3[C@@]1(C)CC2"
answer_label = "1 (yes)"

